The values you see were collected from ChEMBL document CHEMBL5512631.

Biological target: Discoidin domain-containing receptor 2 (Homo sapiens)
Sequence (Q16832 whole entry): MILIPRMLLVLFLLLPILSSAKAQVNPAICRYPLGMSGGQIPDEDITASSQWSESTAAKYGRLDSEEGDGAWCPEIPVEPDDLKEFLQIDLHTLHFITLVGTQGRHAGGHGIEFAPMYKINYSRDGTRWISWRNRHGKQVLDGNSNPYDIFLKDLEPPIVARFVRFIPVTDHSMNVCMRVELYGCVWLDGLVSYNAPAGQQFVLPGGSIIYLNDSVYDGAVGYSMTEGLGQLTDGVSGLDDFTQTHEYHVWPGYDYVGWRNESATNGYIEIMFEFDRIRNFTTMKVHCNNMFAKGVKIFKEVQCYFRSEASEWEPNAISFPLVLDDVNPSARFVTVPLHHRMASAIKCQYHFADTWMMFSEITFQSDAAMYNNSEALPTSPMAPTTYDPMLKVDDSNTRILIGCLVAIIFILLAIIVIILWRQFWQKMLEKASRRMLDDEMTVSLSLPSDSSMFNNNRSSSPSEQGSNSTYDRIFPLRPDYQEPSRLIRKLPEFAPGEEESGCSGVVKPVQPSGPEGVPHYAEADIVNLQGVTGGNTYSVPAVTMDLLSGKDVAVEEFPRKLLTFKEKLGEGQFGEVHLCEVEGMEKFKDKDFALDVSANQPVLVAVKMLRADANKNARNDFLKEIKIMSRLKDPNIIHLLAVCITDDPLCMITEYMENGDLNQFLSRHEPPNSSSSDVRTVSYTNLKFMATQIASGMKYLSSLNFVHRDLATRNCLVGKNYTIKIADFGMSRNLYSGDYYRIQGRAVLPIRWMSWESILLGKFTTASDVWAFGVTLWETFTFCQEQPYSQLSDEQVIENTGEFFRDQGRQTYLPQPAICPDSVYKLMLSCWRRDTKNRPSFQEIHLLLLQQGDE
Test: Inhibition of human DDR2 by discoverX kinome scan assay
quantityKind: pIC50
In textbook form, pIC50 equals minus log to base ten of the concentration in mol/L.

State, in one line, measured pIC50 of Cc1cccc(C(=O)N[C@@H](C)c2ccc(C3CC3)c(-c3ccc4nc(Nc5cnn(C6CC6)c5)ncc4c3)c2)c1
7.51

###

Target: Epithelial discoidin domain-containing receptor 1 (Homo sapiens, UniProt Q08345)
Sequence (Q08345 whole entry, the tested form may be a part): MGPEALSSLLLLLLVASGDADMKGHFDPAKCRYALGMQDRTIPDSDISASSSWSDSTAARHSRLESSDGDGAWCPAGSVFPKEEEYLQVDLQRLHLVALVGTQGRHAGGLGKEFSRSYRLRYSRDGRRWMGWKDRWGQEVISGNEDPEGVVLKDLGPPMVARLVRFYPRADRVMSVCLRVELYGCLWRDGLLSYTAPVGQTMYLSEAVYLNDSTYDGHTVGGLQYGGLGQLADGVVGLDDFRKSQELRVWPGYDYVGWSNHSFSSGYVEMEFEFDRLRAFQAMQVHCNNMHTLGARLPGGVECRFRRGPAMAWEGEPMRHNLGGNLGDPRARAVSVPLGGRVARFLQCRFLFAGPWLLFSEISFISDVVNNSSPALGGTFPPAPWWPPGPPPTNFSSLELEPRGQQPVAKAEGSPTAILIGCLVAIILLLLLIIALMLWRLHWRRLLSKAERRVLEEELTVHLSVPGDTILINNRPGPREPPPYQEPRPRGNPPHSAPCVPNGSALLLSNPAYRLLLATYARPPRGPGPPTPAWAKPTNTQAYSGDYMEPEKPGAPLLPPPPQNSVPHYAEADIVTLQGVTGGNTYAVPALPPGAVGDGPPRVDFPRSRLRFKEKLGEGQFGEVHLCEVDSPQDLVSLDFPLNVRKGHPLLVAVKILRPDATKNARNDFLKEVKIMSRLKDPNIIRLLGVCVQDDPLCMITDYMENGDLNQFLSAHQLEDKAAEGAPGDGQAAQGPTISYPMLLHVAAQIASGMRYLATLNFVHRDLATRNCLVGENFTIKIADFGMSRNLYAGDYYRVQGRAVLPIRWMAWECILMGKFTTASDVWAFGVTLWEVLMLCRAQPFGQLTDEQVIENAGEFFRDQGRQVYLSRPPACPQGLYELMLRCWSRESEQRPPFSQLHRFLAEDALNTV
Experiment: Inhibition of DDR1 (unknown origin)
# key: entry, value: pIC50
In textbook form, pIC50 equals minus log to base ten of the concentration in mol/L.

Example results:
compoundStructure: CC(=O)Nc1ccc(-n2nc3c(=O)[nH]nc(N)c3c2-c2oc3cc(C(=O)Nc4ccccc4C(F)(F)F)ccc3c2C)cc1
subjectOfTest: Epithelial discoidin domain-containing receptor 1 (Homo sapiens, UniProt Q08345)
pIC50: 7.99
//
compoundStructure: O=C(Cc1ccc(Cl)c(COc2ccccc2)c1)c1cccc(C(F)(F)F)c1
subjectOfTest: Epithelial discoidin domain-containing receptor 1 (Homo sapiens, UniProt Q08345)
pIC50: 7.03
//
compoundStructure: Cc1c(-c2c3c(N)n[nH]c(=O)c3nn2-c2ccc(C(N)=O)cc2)oc2cc(C(=O)Nc3ccccc3C(F)(F)F)ccc12
subjectOfTest: Epithelial discoidin domain-containing receptor 1 (Homo sapiens, UniProt Q08345)
pIC50: 7.97

Next, consider the following molecule.
State, in one line, measured pIC50 of CCc1ccc(C(=O)Nc2cc(CN3CCN(C)CC3)cc(C(F)(F)F)c2)cc1-c1cccc(-c2cnc3ccnn3c2)c1
8.18
